Data credit: the EternaBench riboswitch data

System: MS2 coat protein
Experiment: apparent Kd, MS2 coat protein; higher = weaker binding; RNA-MaP array; FMN 200 µM where present
Conditions: ligand present: flavin mononucleotide; designed as: OFF switch for flavin mononucleotide
Value Kind: apparent Kd (nM)
# value in nM; strip the unit string

Example results:
1. GUCAGCUCGUGAGGAUAUACAUCACUGCUUCGGCAGUGUAUUAAGAUCACAUGAGGAUCACCCAUGUAGAAGGCACGAGCUGAU 620
2. GUCAGCUCGUGAGGAUAUACAAUACUGCUUCGGCAGUGUAUUAAGAUCACAUGAGGAUCACCCAUGUAGAAGGCACGAGCUGAU 60.4
3. CUCUAUCAUGUAGGAUAUGCGUGGCGAAGCUAUGCAGAAGGACAUGAGGAUCACCCAUGUCUUUCUGUCUGCGGACGGACAGGG 69.2

Sure, the documented apparent Kd for AAGAAGUUAGGAUAUGCAUGGCGGGACUUGCGUCGUGGCGUGCAGAAGGAACAUGAGGAUCACCCAUGUAAAGA is 18.3

Recorded result, GCCUUACCGGUCAGGAUAUACAUUUGUCACUCCUUGUAGAAGGGACAUGAGGAUCACCCAUGUACAUUACAUUC , apparent Kd: 28.6

Looking up GUGCCUAUCUGAGGAUAUCAACGCACUUGAGCGUGAGAAGGCAGAGGUACAUGAGGAUCACCCAUGUCCUCCAUAAAAUAAAAG , I see its apparent Kd listed as 14.1

* * *

Quick reference: apparent Kd of the listed items.
System: MS2 coat protein
Experiment: apparent Kd, MS2 coat protein; higher = weaker binding; RNA-MaP array; theophylline 2 mM where present
Settings: designed as: ON switch for theophylline; no ligand
Report as a plain number; the unit nM is understood.

1) AGUGUUAUAACUGAUACCAGACCUUUGCUUAUACAUGAGGAUCACCCAUGUAAAAUGGCGGUCCCUUGGCAGCAGAGAAUACGCA 68
2) UGUAACAUGAGGAUCACCCAUGUGAGUGAUACCAGAUUAGUAUUAGUCCCUUGGCAGCACGUUGGGCGAGUGUAUAGUCUAUGCG 147
3) UCUUUCUUUGUAGAUACCAGCAUGUUAAGUUUCUUUUGACAUGAGGAUCACCCAUGUACAUGCCCUUGGCAGCUACAUUUUCUUU 15.2
4) UGUUUUAAAAGUGAUACCAGACAAACAUGAGGAUCACCCAUGUAACAUGAGAGAUAAUAAGUCCCUUGGCAGCACAUAAUUAGUA 31.8
5) UUACGAGGCUAUCCACUUUGAUUUUGUGAUACCAGAAUAAUUUUAUUCCCUUGGCAGCAUGACAUGAGGAUCACCCAUGUGUCUU 38

Recorded apparent Kd for UUUGAUAGGACAGAUACCAGCGUGUUGUAGAACAUGAGGAUCACCCAUGUAGUGAUCAAGCGCCCUUGGCAGCUGGUUUGUUAGG on MS2 coat protein was 170

The value of apparent Kd recorded for ACGUCAACCCUUAUGUUGAUGCAAGACGAUACCAGCCUGGAUACAGGCCCUUGGCAGCGUCAACAUGAGGAUCACCCAUGUAAUA when tested on MS2 coat protein reads 82.8

* * *

System: MS2 coat protein
Assay: apparent Kd, MS2 coat protein; higher = weaker binding; RNA-MaP array; theophylline 2 mM where present
Settings: designed as: ON switch for theophylline; no ligand
Everything with apparent Kd lower than 60 nM is Not satisfied; everything else, including exactly 60 nM, is Satisfied.

1) AUCGUACCUGGUGAUACCAGCAAUUGCUCGUGACAUGAGGAUCACCCAUGUGACCAGUGAUGCCCUUGGCAGCAUGGUCGGUGCA Satisfied

Identify whether the reported apparent Kd of the following sequence is 60 nM or greater: AGUACUCGAACGGAUACCAGCCGGACAUGAGGAUCACCCAUGUCCUACCAUGUUUCGGUUGGCCCUUGGCAGCCGUUCGUGUACA Satisfied

hey, is apparent Kd for this one >= 60 nM? UAUUUUGGGCGCGAGCCCGGGAUAAUUGAUACCAGUGAAGAAGAGCGCCCUUGGCAGCGAAUCCUAACAUGAGGAUCACCCAUGU Not satisfied

# bool: apparent Kd of AUCGUACCUGAUGAUACCAGCAUGUGAUCGUAACAUGAGGAUCACCCAUGUAAUCAGUGAUGCCCUUGGCAGCAUGAUCGGUACA >= 60 nM Satisfied

* * *

apparent Kd for assorted sequences
Test system: MS2 coat protein
Test: apparent Kd, MS2 coat protein; higher = weaker binding; RNA-MaP array
Settings: designed as: OFF switch for flavin mononucleotide; no ligand
State the answer as a number, implicitly in nM.

Here's what some known entries look like.
1. CUUUACUGAGGAUAUACGCAGAUCUAGAUAUCGUAAUACGAACAUGAGGAUCACCCAUGUAGAAGGCAGGCCGA 12.4
2. GUCAGGUGGACAGGAUAUCGUGCUCGUAGACAUGAGGAUCACCCAUGUUCGCUCUUCUUCGGCAUCGAGAAGGGUCUCCAAUCU 34.8
3. GUCUUGUAAGGAUAUGAUCAGUAGGAAAGAUGGCAGCAUCAUCAGAAGGUACAUGAGGAUCACCCAUGUUGUGA 17
4. GGUGAAUUAGUGAGGAUAUGAUAGACAAACAAAAUACAGAAGGCACAUGAGGAUCACCCAUGUGACGGAGAGAA 6.31
5. CACCCUAAAGGAUAUACAGCAUAGAAAACGGGUAAGUCUAAACAUGAGGAUCACCCAUGUAGAAGGUUAGAAUU 14.8
6. CACAUGAGGAUCACCCAUGUCUACGAAAGAUGUAGGGAAAAGAGAAGGUGGAGGGAACUGCCAGCCAAGGAUAUCUGCACUCGA 31.8

For GAUUGACAUGAGGAUCACCCAUGUAGCGUAUGGUGACUUCUGAAGGAUAUUAAUGCAGUGGCGGUUAAGAAGGUCAGCUAAUCG the sequence record lists apparent Kd as 45.7

GET /value?item= GGGAAACUCUACACUCACAACACAUGAGGAUCACCCAUGUUAAGAAGGUUCAGAACGGGCAAUCGAAAGGAUAUUAGGAUGGCU &field=apparent Kd returns 10.7

Looking up AGUGUAAUAUAAGGAUAUAACCGCACAAGAAUGUUAGAAGGUAUUUUACAUGAGGAUCACCCAUGUGAAUGUAGUCCUCACUAU , I found its apparent Kd recorded as 9.6

* * *

apparent Kd values for the sequences below.
System: MS2 coat protein
Experiment: apparent Kd, MS2 coat protein; higher = weaker binding; RNA-MaP array
Settings: designed as: OFF switch for tryptophan; no ligand
Hey, just the number and the unit after it is fine.

1. ACAUGAGGAUCACCCAUGUUGAACUACCAUCGAGGACCGGUACGGCCGCCACUCGCGUUCUCCUUAGCAUCAAGGUCCGCGAAAC 13.3 nM
2. AGCGCGAAUAGAUCCAAAGUUAUUAGUGAGCGAGGACCGGUACGGCCGCCACUCGUGGCUCUACAUGAGGAUCACCCAUGUACAU 354 nM
3. CAAGAGUUGUACAUUGUGAGGCGUCGGGAACGAGGACCGGUACGGCCGCCACUCGAAAAUUAACAUGAGGAUCACCCAUGUACAC 70.8 nM
4. AUAACAGUGUCGGCCGCCACUAGAACACAUGAGGAUCACCCAUGUGGUGGUACCUCCUAAGACGAUAGGACCGGGACCCAUCUAC 134 nM
5. GGUUGAUGGUCGGCCGCCACUGUUGGUGCCAUGAGUUAAGUAUAGCACAUGAGGAUCACCCAUGUCAGGACCGGGACUCUACCCG 14.6 nM
6. UGGUGCCCUGUAUACAUUGUAAUCCUAAUGCGAGGACCGGUACGGCCGCCACUCGUUGCGGAACAUGAGGAUCACCCAUGUAACA 18.3 nM

Turning to the following sequence.
apparent Kd for AACGAUUAAUCGGCCGCCACUCACAUGAGGAUCACCCAUGUUGUUCUUCCAGGUGGUUCUGUUCCGAGGACCGGGAUUCCGUCCU is 55.1 nM

* * *

The entries below are paired with their reported apparent Kd.
Test system: MS2 coat protein
Experiment: apparent Kd, MS2 coat protein; higher = weaker binding; RNA-MaP array
Conditions: ligand present: tryptophan; designed as: OFF switch for tryptophan
Numeric answer only, unit nM assumed.

1. UCUUCGUUGGCGUCACAAUUCAUGCAAUGCCGAGGACCGGUACGGCCGCCACUCGGACUAAUACAUGAGGAUCACCCAUGUCGUG 102
2. AACGAUUAAUCGGCCGCCACUCACAUGAGGAUCACCCAUGUUGUUCUUCCAGGUGGUUCUGUUCCGAGGACCGGGAUUCCGUCCU 57.5
3. AUAACAGUGUCGGCCGCCACUAGAACACAUGAGGAUCACCCAUGUGGUGGUACCUCCUAAGACGAUAGGACCGGGACCCAUCUAC 95.2
4. ACAUGAGGAUCACCCAUGUUGAACUACCAUCGAGGACCGGUACGGCCGCCACUCGCGUUCUCCUUAGCAUCAAGGUCCGCGAAAC 12.7
5. AUUUGGCGUAGUGUUGCUCGUGGGAUAAAACGAGGACCGGUACGGCCGCCACUCGAUGAUUAACAUGAGGAUCACCCAUGUAAAU 104

Now turn to the next sequence.
Recorded apparent Kd (sequence UGGACGCAACGAGCACGAGGUCGGCAGCUACGAGGACCGGUACGGCCGCCACUCGAGUUACGACAUGAGGAUCACCCAUGUAAGG ): 178
